System: Mast/stem cell growth factor receptor Kit (Homo sapiens), P10721 [T670I]
Sequence (P10721 whole entry T670I): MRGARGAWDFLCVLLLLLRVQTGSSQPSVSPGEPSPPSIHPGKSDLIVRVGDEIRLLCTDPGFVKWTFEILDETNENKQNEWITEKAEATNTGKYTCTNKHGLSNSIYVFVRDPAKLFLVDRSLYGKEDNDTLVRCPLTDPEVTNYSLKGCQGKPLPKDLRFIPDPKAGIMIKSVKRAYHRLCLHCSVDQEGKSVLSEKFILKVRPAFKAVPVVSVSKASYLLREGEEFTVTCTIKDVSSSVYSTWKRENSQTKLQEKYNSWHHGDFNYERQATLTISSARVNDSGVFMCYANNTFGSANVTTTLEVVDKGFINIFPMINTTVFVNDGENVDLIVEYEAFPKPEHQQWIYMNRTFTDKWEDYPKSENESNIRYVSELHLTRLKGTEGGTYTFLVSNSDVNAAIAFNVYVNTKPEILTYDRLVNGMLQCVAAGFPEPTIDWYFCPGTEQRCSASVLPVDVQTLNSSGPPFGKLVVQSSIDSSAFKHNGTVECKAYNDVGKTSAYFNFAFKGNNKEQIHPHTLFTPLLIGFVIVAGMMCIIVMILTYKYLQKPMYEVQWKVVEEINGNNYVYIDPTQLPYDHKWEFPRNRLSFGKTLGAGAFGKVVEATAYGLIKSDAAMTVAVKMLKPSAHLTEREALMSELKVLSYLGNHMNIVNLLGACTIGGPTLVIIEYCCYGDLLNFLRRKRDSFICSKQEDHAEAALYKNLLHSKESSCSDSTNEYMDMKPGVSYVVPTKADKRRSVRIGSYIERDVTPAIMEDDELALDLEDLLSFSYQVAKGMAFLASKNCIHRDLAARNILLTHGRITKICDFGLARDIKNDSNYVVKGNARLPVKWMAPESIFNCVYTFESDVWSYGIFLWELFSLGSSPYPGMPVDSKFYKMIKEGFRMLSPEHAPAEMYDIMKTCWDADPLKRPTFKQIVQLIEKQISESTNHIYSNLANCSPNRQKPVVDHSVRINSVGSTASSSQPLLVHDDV
Settings: at 1 µM
// -1 strictly below 10% in inhibition; 1 otherwise

>>> discrete_label("COc1cccc(-c2c[nH]c3c(N/N=C/c4ccncc4)ncnc23)c1")
1
>>> discrete_label("CN(C)CCOc1ccc(-c2nc(-c3ccncc3)c(-c3ccc4c(c3)CC/C4=N\\O)[nH]2)cc1")
-1
>>> discrete_label("CC(=O)Nc1cccc(C#Cc2cncnc2Nc2ccc(OCc3cccc(F)c3)c(Cl)c2)c1")
-1
>>> discrete_label("COc1ccc(-c2nn3ncccc3c2-c2ccnc(Nc3ccc4c(c3)OCCO4)n2)cc1")
1
>>> discrete_label("CC(C)(CO)CNC(=O)c1ccc2c(c1)/C(=N/Nc1ccc(S(N)(=O)=O)cc1)C(=O)N2")
-1
>>> discrete_label("CCN(CC)S(=O)(=O)c1ccc(OC)c(Nc2ncc(-c3ccccc3)o2)c1")
1
>>> discrete_label("CCn1c(-c2nonc2N)nc2cnc(Oc3cccc(NC(=O)c4ccc(N(C)C)cc4)c3)cc21")
-1
>>> discrete_label("Cc1ccc(O)cc1Nc1ccnc2cc(-c3ccccn3)ccc12")
-1

Attention now shifts to the item below.
For this compound, is measured inhibition 10% or higher? COc1ccc2c(-c3ccnc(Nc4cccc(OC(F)(F)F)c4)n3)cnn2n1 1

---

Target: Cyclin-dependent kinase 5 (Homo sapiens) (UniProt Q00535);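 also: mean value of inhibition, with the enzyme tested as CDK5/p35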
Sequence (Q00535 whole entry, looked up): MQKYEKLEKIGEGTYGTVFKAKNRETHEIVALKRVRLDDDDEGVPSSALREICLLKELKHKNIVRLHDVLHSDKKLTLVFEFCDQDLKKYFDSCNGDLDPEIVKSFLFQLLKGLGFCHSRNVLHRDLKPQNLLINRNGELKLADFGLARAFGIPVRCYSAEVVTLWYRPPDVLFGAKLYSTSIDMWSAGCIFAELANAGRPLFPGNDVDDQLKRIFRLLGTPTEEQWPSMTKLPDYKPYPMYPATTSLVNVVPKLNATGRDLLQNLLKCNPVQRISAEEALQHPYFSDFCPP
Conditions: at 1 µM
Each item that follows carries a reported inhibition.

Please review the entries below; each comes with its answer.
>>> test_result("Cc1ccc(O)cc1Nc1ccnc2cc(-c3ccccn3)ccc12")
"1.9%"
>>> test_result("COc1cccc(-c2c[nH]c3c(N/N=C/c4ccncc4)ncnc23)c1")
"73.1%"
>>> test_result("COc1ccc(-c2nn3ncccc3c2-c2ccnc(Nc3ccc4c(c3)OCCO4)n2)cc1")
"2.41%"
>>> test_result("COc1cc2c(cc1Nc1nc(Nc3ccsc3C(N)=O)c3cc[nH]c3n1)N(C(=O)CN(C)C)CCC2(C)C")
"7.33%"
>>> test_result("c1ccc(COc2ccc(Nc3ncnc4ccc(-c5ccco5)cc34)cc2)cc1")
"1.53%"
>>> test_result("Cc1cccc2c1NC(=O)/C2=N\\Nc1ccc(S(N)(=O)=O)cc1")
"2.95%"
>>> test_result("Fc1ccc(-c2cc(-c3c[nH]nc3-c3ccccn3)ccn2)cc1")
"-1.54%"
>>> test_result("CNC(=O)c1cccc(C#Cc2cncnc2Nc2ccc(OCc3cccc(F)c3)c(Cl)c2)c1")
"2.33%"
>>> test_result("COc1ccc(-c2oc3ncnc(N)c3c2-c2ccc(NC(=O)Nc3cc(C(F)(F)F)ccc3F)cc2)cc1")
"4.32%"
>>> test_result("COc1cc(/C=N/Nc2ncnc3[nH]ncc23)ccc1O")
"16.3%"

Kindly note: Cyclin-dependent kinase 5 (Homo sapiens) (UniProt Q00535), N#Cc1c(NC(=O)c2ccc(F)cc2)sc2c1CCCC2 , inhibition value reported: 0.28%

inhibition for Cyclin-dependent kinase 5 (Homo sapiens) (UniProt Q00535) with input CCn1c(-c2nonc2N)nc2cnc(Oc3cccc(NC(=O)c4ccc(N(C)C)cc4)c3)cc21 equals 1.93%

Form field inhibition for item CCc1nn2ncccc2c1-c1ccnc(NC2CC2)n1 on Cyclin-dependent kinase 5 (Homo sapiens) (UniProt Q00535): 6.84%

Noted inhibition for Nc1nc(-c2cccc(Cl)c2)c(-c2ccc3ncccc3n2)s1 , tested on Cyclin-dependent kinase 5 (Homo sapiens) (UniProt Q00535): 0.13%

Summary line: O=C(O[C@H]1CN[C@H](C#Cc2cc3ncnc(Nc4ccc(Cc5ccccc5)cc4)c3s2)C1)N1CCOCC1 , Cyclin-dependent kinase 5 (Homo sapiens) (UniProt Q00535), reported inhibition = 1.12%

Per the reported Cyclin-dependent kinase 5 (Homo sapiens) (UniProt Q00535) data, CC(=O)Nc1cccc(C#Cc2cncnc2Nc2ccc(OCc3cccc(F)c3)c(Cl)c2)c1 has inhibition of 0.21%

Query FC(F)(F)c1cccc(-c2nn3ncccc3c2-c2ccnc(Nc3ccc4c(c3)OCCO4)n2)c1 on Cyclin-dependent kinase 5 (Homo sapiens) (UniProt Q00535); inhibition returned: 2.11%

Entry Fc1ccc(-c2nn3ncccc3c2-c2ccnc(Nc3ccc4c(c3)OCCO4)n2)cc1 : inhibition on Cyclin-dependent kinase 5 (Homo sapiens) (UniProt Q00535) = 0.21%

Lab entry: Cyclin-dependent kinase 5 (Homo sapiens) (UniProt Q00535) assay, molecule COC(=O)Nc1nc2ccc(Oc3ccc(NC(=O)Nc4cccc(Cl)c4)cc3)cc2[nH]1 , inhibition = -0.49%

Reported inhibition (Cyclin-dependent kinase 5 (Homo sapiens) (UniProt Q00535)) for entry COc1ccc2[nH]c3c4[nH]c5ccc(OC)cc5c4c4c(c3c2c1)C(=O)NC4=O is 2.57%

Log: Cyclin-dependent kinase 5 (Homo sapiens) (UniProt Q00535), molecule Cc1ccc2c(-c3ccnc(Nc4ccccc4)n3)c(-c3ccc(F)cc3)nn2n1 , inhibition = 2.21%

---

Molecular target: MAP kinase-interacting serine/threonine-protein kinase 1 (Homo sapiens)
Conditions: at 0.1 µM
Description: GSK_PKIS: MKNK1 mean inhibition at 0.1 uM [Nanosyn]
Catalogue of compounds with associated inhibition
State just the number; it will be interpreted in %.

Here are 6 compounds together with their reported answers.
>>> test_result("NS(=O)(=O)c1ccc(Nc2ncc(-c3ccccc3)o2)cc1")
4.26
>>> test_result("COc1cccc(-n2ncc3c(N/N=C/c4ccc(F)cc4)ncnc32)c1")
4.58
>>> test_result("COc1ccc(-c2cc3c(N)ncnc3o2)cc1")
0.35
>>> test_result("CN1CCC(n2cnc(-c3ccc(F)cc3)c2-c2ccnc(Nc3ccccc3)n2)CC1")
1.8
>>> test_result("Cc1ccc(O)cc1Nc1ccnc2cc(-c3ccccn3)ccc12")
3.8
>>> test_result("Cc1ccc2c(-c3ccnc(Nc4ccccc4)n3)c(-c3ccc(F)cc3)nn2n1")
0.98

get_value(item= c1ccc(-c2nc3n(c2-c2ccc4c(c2)OCO4)CCC3)nc1 , readout=inhibition) returns 1.71

Recorded result, Clc1ccc(-c2nn3ncccc3c2-c2ccnc(Nc3ccccc3)n2)cc1 , inhibition: 0.8

For this compound ( Fc1ccc(-c2cc(-c3c[nH]nc3-c3ccccn3)ccn2)cc1 ), measured inhibition is 4.46

Input CCc1nn2ncccc2c1-c1ccnc(NC2CC2)n1 . Output inhibition: 5.42

COc1cc(N2CCN(C(C)C)CC2)ccc1Nc1nc(Nc2ccc(F)cc2C(N)=O)c2cc[nH]c2n1 has a reported inhibition of 0.9

Per the record, Cc1cccc2c1NC(=O)/C2=N\Nc1ccc(S(N)(=O)=O)cc1 has inhibition of 1.62

// sample COC(=O)c1sc(-n2cnc3cc(OC)c(OC)cc32)cc1OCc1ccccc1C(F)(F)F , its inhibition was 3.55

---

Molecular target: Serine/threonine-protein kinase BRSK2 (Homo sapiens) (UniProt Q8IWQ3);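 also: mean kinase inhibition reported within the GSK PKIS dataset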
Sequence (Q8IWQ3 whole entry): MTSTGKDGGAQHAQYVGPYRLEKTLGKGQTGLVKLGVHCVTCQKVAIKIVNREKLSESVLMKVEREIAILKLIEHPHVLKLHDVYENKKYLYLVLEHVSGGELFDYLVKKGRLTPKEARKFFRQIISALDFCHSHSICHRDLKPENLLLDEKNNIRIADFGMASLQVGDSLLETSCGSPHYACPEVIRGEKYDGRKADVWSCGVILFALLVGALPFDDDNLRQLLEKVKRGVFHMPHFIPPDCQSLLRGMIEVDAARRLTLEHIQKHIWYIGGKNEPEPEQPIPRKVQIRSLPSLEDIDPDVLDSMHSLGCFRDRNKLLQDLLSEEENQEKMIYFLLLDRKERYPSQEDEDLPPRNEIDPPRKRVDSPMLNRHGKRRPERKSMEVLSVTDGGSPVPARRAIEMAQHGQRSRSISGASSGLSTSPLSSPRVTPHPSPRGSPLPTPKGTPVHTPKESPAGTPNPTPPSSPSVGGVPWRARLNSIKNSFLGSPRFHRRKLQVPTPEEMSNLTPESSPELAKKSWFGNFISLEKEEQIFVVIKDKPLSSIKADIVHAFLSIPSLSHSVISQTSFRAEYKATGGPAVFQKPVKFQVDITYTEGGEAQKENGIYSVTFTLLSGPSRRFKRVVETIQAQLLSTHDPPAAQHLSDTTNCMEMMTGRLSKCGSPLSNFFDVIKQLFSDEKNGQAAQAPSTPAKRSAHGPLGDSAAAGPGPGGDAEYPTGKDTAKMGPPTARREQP
Details: at 1 µM
METRIC_NAME: inhibition (%)
Reply with just the number (in %).

For orientation, consider the following solved cases.
>>> test_result("CC(C)COC(=O)c1ccc2c(c1)/C(=C/Nc1ccc(S(N)(=O)=O)cc1)C(=O)N2")
50.1
>>> test_result("COc1ccc2c(-c3ccnc(Nc4cccc(OC(F)(F)F)c4)n3)cnn2n1")
3.88

Proceed to the following item.
// recorded inhibition for Cc1ccc2c(-c3ccnc(Nc4ccccc4)n3)c(-c3ccc(F)cc3)nn2n1 : 0.62

---

Listing: inhibition of selected compounds
Biological target: Serine/threonine-protein kinase 26 (Homo sapiens);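 also: mean inhibition of MST4 kinase activity, reported from the GSK PKIS inhibitor-set screening panel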
Conditions: at 1 µM
Give the number first and the unit second.

Known inhibition results, listed for orientation:
>>> test_result("O=C(O[C@H]1CN[C@H](C#Cc2cc3ncnc(Nc4ccc(Cc5ccccc5)cc4)c3s2)C1)N1CCOCC1")
"-0.68%"
>>> test_result("[O-][S+]1CCN(Cc2ccc(-c3ccc4ncnc(Nc5ccc(OCc6cccc(F)c6)c(Cl)c5)c4c3)o2)CC1")
"2.07%"
>>> test_result("COc1cccc(-c2c[nH]c3c(N/N=C/c4ccncc4)ncnc23)c1")
"20.3%"

# context switch: different compound, same inhibition
// field: inhibition; key: NC(=O)c1sc(-n2cnc3ccc(C(F)(F)F)cc32)cc1OCc1ccccc1Br ; value = 0.41%

---

Target: Serine/threonine-protein kinase Nek1 (Homo sapiens)
Conditions: at 1 µM
Description: GSK_PKIS: NEK1 mean inhibition at 1 uM [Nanosyn]
Please note: TRUE applies when inhibition is 2% or greater, and FALSE applies otherwise.

Assess whether reported inhibition for Fc1cccc(COc2ccc(Nc3ncnc4sc(-c5ccco5)cc34)cc2Cl)c1 sits at 2% or higher. TRUE

Form field: inhibition at least 2%? Entry: Fc1ccc(-c2nn3ncccc3c2-c2ccnc(Nc3ccc4c(c3)OCCO4)n2)cc1 FALSE

Does the reported inhibition for CC(C)(CO)CNC(=O)c1ccc2c(c1)/C(=N/Nc1ccc(S(N)(=O)=O)cc1)C(=O)N2 fall at or above the 2% mark? FALSE

Is inhibition for CC1=C(C(=O)Nc2cc(Cl)c3[nH]ncc3c2)C(c2ccc(C(F)(F)F)cc2)CC(=O)N1 (centres undefined) at or above 2%? TRUE

Is it the case that COc1ccc(-c2cc3c(N)ncnc3o2)cc1 has inhibition reaching or exceeding 2%? TRUE

Entry COc1cc(N2CCN(C(C)C)CC2)ccc1Nc1nc(Nc2ccc(F)cc2C(N)=O)c2cc[nH]c2n1 : is its inhibition no less than 2%? TRUE

Check the entry CN(C)CCOc1ccc(-c2nc(-c3ccncc3)c(-c3ccc4c(c3)CC/C4=N\O)[nH]2)cc1 : does inhibition equal or exceed 2%? TRUE

Does the reported inhibition for COc1ccc(-c2cc(-c3c[nH]nc3-c3ccccn3)ccn2)cc1 fall at or above the 2% mark? TRUE
